These measurements were taken from ChEMBL document CHEMBL3526097.

Experiment: Percentage unbound in human alpha-1-acid glycoprotein at 5 uM after 5 hrs by equilibrium dialysis
Format: ADME
QUANTITY KIND: fraction unbound at 5 h, 5 µM

[[record]]
structure_smiles_string = "O=C(c1ccc(F)c(F)c1N[14c]1[14cH][14cH][14c](I)[14cH][14c]1F)N1CC(O)([C@@H]2CCCCN2)C1"
recorded_result = 0.042


---

Molecular target: Albumin (Homo sapiens)
Sequence (P02768 whole entry): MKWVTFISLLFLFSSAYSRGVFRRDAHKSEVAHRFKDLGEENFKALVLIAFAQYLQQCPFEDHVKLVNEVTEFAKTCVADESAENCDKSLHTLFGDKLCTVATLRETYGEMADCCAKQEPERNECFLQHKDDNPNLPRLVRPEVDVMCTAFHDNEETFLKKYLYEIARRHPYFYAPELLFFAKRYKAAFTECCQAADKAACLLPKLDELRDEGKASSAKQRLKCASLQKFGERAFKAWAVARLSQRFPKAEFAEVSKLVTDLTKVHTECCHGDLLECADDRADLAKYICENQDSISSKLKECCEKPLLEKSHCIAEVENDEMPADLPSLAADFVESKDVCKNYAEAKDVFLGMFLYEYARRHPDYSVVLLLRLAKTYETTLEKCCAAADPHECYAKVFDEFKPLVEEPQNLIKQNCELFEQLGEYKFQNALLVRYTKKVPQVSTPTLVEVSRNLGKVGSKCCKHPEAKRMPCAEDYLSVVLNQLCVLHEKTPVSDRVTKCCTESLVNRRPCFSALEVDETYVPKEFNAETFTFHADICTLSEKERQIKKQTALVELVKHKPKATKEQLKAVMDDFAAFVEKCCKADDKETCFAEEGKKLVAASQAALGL
Assay: Percentage unbound in human serum albumin at 10 uM after 5 hrs by equilibrium dialysis
Format: ADME
QUANTITY KIND: fraction unbound at 5 h, 10 µM

[[record]]
structure_smiles_string = "O=C(c1ccc(F)c(F)c1N[14c]1[14cH][14cH][14c](I)[14cH][14c]1F)N1CC(O)([C@@H]2CCCCN2)C1"
recorded_result = 0.408


---

System: Mus musculus
Assay: AUC (infinity) in nu/nu mouse at 1 mg/kg, iv by LC-MS/MS analysis
Assay type: ADME, organism-based, Plasma
Set-up: time infinity, dose 1 mg/kg, route intravenous
Details: in vivo
QUANTITY KIND: AUC (ng·h/mL)

[[record]]
structure_smiles_string = "O=C(c1ccc(F)c(F)c1Nc1ccc(I)cc1F)N1CC(O)([C@@H]2CCCCN2)C1"
quantity_kind = "AUC"
recorded_result = 935


---

Assay: Percentage unbound in dog plasma at 1 uM after 5 hrs by equilibrium dialysis
Format: ADME, cell-free, Canis lupus familiaris
QUANTITY KIND: fraction unbound at 5 h, 1 µM

[[record]]
structure_smiles_string = "O=C(c1ccc(F)c(F)c1N[14c]1[14cH][14cH][14c](I)[14cH][14c]1F)N1CC(O)([C@@H]2CCCCN2)C1"
quantity_kind = "fraction unbound at 5 h, 1 µM"
recorded_result = 0.007


---

Tested on: MDR1
Test: Efflux ratio of permeability from […] side in MDCK1 cells expressing MDR1 at 25 uM after 2 hrs by LC-MS/MS analysis
Format: ADME, cell-based, Canis lupus familiaris
Conditions: dog, MDCK-MDR1
QUANTITY KIND: efflux ratio at 2 h, 25 µM

[[record]]
compound = "O=C(c1ccc(F)c(F)c1Nc1ccc(I)cc1F)N1CC(O)([C@@H]2CCCCN2)C1 [COBIMETINIB]"
recorded_result = 40


---

Assay: Terminal half life in Sprague-Dawley rat at 3 mg/kg, iv by LC-MS/MS analysis
Format: ADME, organism-based
Design: dose 3 mg/kg, route intravenous
Conditions: in vivo, read-out: beta t1/2 (converted)
QUANTITY KIND: half-life (h)

[[record]]
molecule = "O=C(c1ccc(F)c(F)c1Nc1ccc(I)cc1F)N1CC(O)([C@@H]2CCCCN2)C1 [COBIMETINIB]"
recorded_result = 13.3


---

Test: Percentage unbound in cynomolgus monkey plasma at 5 uM after 5 hrs by equilibrium dialysis
Assay type: ADME, cell-free, Macaca fascicularis
QUANTITY KIND: fraction unbound at 5 h, 5 µM

[[record]]
structure_smiles_string = "O=C(c1ccc(F)c(F)c1N[14c]1[14cH][14cH][14c](I)[14cH][14c]1F)N1CC(O)([C@@H]2CCCCN2)C1"
quantity_kind = "fraction unbound at 5 h, 5 µM"
recorded_result = 0.044


---

Test: Percentage unbound in human plasma at 1 uM after 5 hrs by equilibrium dialysis
Type: ADME, cell-free
QUANTITY KIND: fraction unbound at 5 h, 1 µM

[[record]]
structure_smiles_string = "O=C(c1ccc(F)c(F)c1N[14c]1[14cH][14cH][14c](I)[14cH][14c]1F)N1CC(O)([C@@H]2CCCCN2)C1"
quantity_kind = "fraction unbound at 5 h, 1 µM"
recorded_result = 0.052

